Tested on: Plasmodium falciparum NF54 stage V gametocytes
procedure summary: viability index relative to DMSO control (fraction); higher = less gametocyte killing
assay setup: 2.5 µM, library set: Broad Institute DOS, incubation time: 72 h
In all, about 9,900 compounds were measured (“viability index relative to DMSO control”: median about 1, lowest 2% from about 0.85 on). What follows is part of a selection rich in the lowest values, with near analogues and random picks from the rest.
Could you please report measured viability index for the items listed next?
Please give the numeric answer without any surrounding text.

Item: `CN(C[C@H]1N[C@@H](CO)[C@H]1c1ccc(-c2ccc(F)cc2)cc1)C(=O)C1CCC1` | viability index: 0.971

Item: `COc1ccccc1CNC(=O)C[C@@H]1C[C@@H]2c3cc(NC(=O)C4CCC4)ccc3O[C@@H]2[C@@H](CO)O1` | viability index: 1.01

Item: `O=C(Nc1cccc(F)c1)N1CCCCN2[C@@H](CO)[C@@H](c3ccc(C#Cc4cccnc4)cc3)[C@@H]2C1` | viability index: 0.979

Item: `O=C(NCc1ccccc1)[C@H]1[C@H](CO)[C@H]2Cn3c(cccc3=O)[C@@H]1N2C(=O)Cc1ccccn1` | viability index: 1.01

----------
Tested on: Plasmodium falciparum NF54 stage V gametocytes
procedure summary: viability index relative to DMSO control (fraction); higher = less gametocyte killing
assay setup: 2.5 µM, library set: Broad Institute DOS, incubation time: 72 h
Whole data set: some 9,900 compounds, median “viability index relative to DMSO control” near 1, cut for the lowest 2% near 0.85. The entries come from a sample that favours the lowest values as a whole.
assay endpoint: viability index
Please give the numeric answer without any surrounding text.

Item: `C[C@H]1CN([C@@H](C)CO)S(=O)(=O)c2ccc(C#Cc3cccc(F)c3)cc2O[C@@H]1CN(C)S(=O)(=O)c1cn(C)cn1` | viability index: 0.985

Item: `C[C@@H]1CN([C@H](C)CO)S(=O)(=O)c2ccc(C#Cc3cccc(F)c3)cc2O[C@H]1CN(C)S(=O)(=O)c1cn(C)cn1` | viability index: 0.803

Item: `Cc1noc(C)c1S(=O)(=O)N(C)C[C@@H]1Oc2c(NC(=O)c3ccc(-c4nccs4)cc3)cccc2C(=O)N([C@H](C)CO)C[C@@H]1C` | viability index: 0.978

Item: `CN1CCN(C(=O)C[C@H]2CC[C@@H]3[C@H](COC[C@H](O)CN3C(=O)c3ccccc3F)O2)CC1` | viability index: 0.986

Item: `O=C(c1cccc(F)c1)N1CC2(C1)[C@H](c1ccccc1)[C@@H](CO)N2Cc1ccccn1` | viability index: 1.13

Item: `N#C[C@@H]1[C@@H](c2ccccc2C2=CCCCC2)[C@H](CO)N1S(=O)(=O)c1ccccc1` | viability index: 1.05

Item: `CC(=O)N1[C@H](CO)[C@@H](c2ccccc2)C12CN(Cc1ccc(Cl)cc1)C2` | viability index: 1.06

Item: `C[C@@H]1CN([C@@H](C)CO)S(=O)(=O)c2ccc(C#Cc3cccc(F)c3)cc2O[C@@H]1CN(C)S(=O)(=O)c1cn(C)cn1` | viability index: 0.951

Item: `Cc1noc(C)c1S(=O)(=O)N(C)C[C@H]1OCCCC[C@H](C)Oc2ccc(NS(=O)(=O)c3cn(C)cn3)cc2C(=O)N([C@H](C)CO)C[C@@H]1C` | viability index: 1.08

Item: `COc1cccc(S(=O)(=O)N(C)C[C@@H]2Oc3cc(Br)ccc3S(=O)(=O)N([C@@H](C)CO)C[C@@H]2C)c1` | viability index: 1.07

Item: `C[C@@H]1CN([C@H](C)CO)S(=O)(=O)c2ccc(C#Cc3cccc(F)c3)cc2O[C@@H]1CN(C)S(=O)(=O)c1cn(C)cn1` | viability index: 1.01

Item: `COc1ccc(S(=O)(=O)N(C)C[C@@H]2OCCCC[C@H](C)Oc3ccc(NC(=O)Cc4ccccc4)cc3C(=O)N([C@@H](C)CO)C[C@H]2C)cc1` | viability index: 0.911

Item: `O=C(NC[C@@H]1[C@H](c2ccccc2)[C@H](CO)N1Cc1ccccn1)C1CCCC1` | viability index: 0.684
